Reference source for all entries: ChEMBL document CHEMBL1155944

target: GABA A receptor alpha-5/beta-3/gamma-2 (Rattus norvegicus) (UniProt P18508+P19969+P63079); experiment: Intrinsic activity at recombinant rat GABAA alpha-5-beta-3-gamma-2 receptor expressed in HEK293 cells assessed as induction of current at 1 mM by whole-cell patch-clamp technique relative to GABA; assay type: cell-based
metric: Activity (%)
Return type: number; implicit unit %.

Oc1nnc(C2CCNCC2)o1 = 34

--- query ---
input: Consider the molecule `Cl.Sc1nnc(C2CCNCC2)o1` and give its measured Activity.
output: 48

====

test: Displacement of [3H]Muscimol from GABAA alpha-1-alpha-5 receptor in Sprague-Dawley rat brain cortex membrane
metric: pIC50
Kindly note that pIC50 refers to -log10 of the concentration in mol/L and answer with the value alone.

# annotated cases, reported pIC50 shown
NCc1nnc(S)o1 = 4.24
Oc1nnc(C2CCNCC2)o1 = 3.74
NCCc1nnc(O)o1 = 5.03
Cc1nnc(C2CCNCC2)o1 = 3.96

Attention now shifts to the item below.
input: Reported pIC50, compound `NCc1nnc(O)o1` : ____
output: 5.85

====

Overview of reported inhibition across a group of molecules:
species: Rattus norvegicus; assay: Displacement of [3H]Muscimol from GABAA alpha-1-alpha-5 receptor in Sprague-Dawley rat brain cortex membrane at 1 mM
Entry rule: numbers only, all in %.

Solved cases below.
Oc1nnc(C2CCCCC2)o1 = -2
NCCc1nnc(S)o1 = 61
CN1CCC(c2nnc(S)o2)CC1 = 48
Cc1nnc(S)o1 = 10
CNCc1nnc(S)o1 = 24
C[C@@H](N)c1nnc(O)o1 = 16

input: Can you look up the measured inhibition of `Cc1nnc(O)o1` for me?
output: 26

input: # lookup: inhibition of `CN(C)Cc1nnc(S)o1`
output: 47

input: Look up inhibition: `Oc1nnc(C2CCNCC2)o1`
output: 79

====

# inhibition annotations
species on record: Rattus norvegicus; assay: Displacement of [3H]Muscimol from GABAA alpha-1-alpha-5 receptor in Sprague-Dawley rat brain cortex membrane at 100 uM
Answer format: numeric, % implied, no suffix.

NCCc1nnc(S)o1 = 9
CNCc1nnc(S)o1 = 17
CN1CCC(c2nnc(S)o2)CC1 = 6

input: Bench note: what inhibition did `Oc1nnc(C2CCNCC2)n1Cc1ccccc1` show?
output: 18

====

Attribute: inhibition
target: Gamma-aminobutyric acid receptor subunit alpha-6 (Rattus norvegicus) (UniProt P30191); experiment: Displacement of [3H]Muscimol from GABAAalpha6 receptor in Sprague-Dawley rat brain cerebellum membrane at 100 uM; type: tissue-based
Sequence (P30191 whole entry): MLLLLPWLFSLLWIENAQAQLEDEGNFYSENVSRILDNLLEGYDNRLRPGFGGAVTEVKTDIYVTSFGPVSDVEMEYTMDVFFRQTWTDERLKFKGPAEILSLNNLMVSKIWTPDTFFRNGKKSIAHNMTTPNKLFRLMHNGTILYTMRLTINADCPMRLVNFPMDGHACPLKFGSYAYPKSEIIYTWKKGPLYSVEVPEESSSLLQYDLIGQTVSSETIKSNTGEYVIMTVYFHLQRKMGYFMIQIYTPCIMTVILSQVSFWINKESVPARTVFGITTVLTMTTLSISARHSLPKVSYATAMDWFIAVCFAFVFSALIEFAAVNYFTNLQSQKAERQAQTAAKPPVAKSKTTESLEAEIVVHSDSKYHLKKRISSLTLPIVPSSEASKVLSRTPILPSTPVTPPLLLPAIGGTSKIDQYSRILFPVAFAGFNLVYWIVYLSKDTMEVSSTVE
# value in %; strip the unit string

CN(C)Cc1nnc(S)o1 = 3
NCc1nnc(O)o1 = 97

input: Tell me the measured inhibition of Oc1nnc(C2CCCNC2)o1 (configuration not stated) , please.
output: 9

input: Consider the molecule shown here: `Oc1nnc(C2CCN(Cc3ccccc3)CC2)o1` What is its recorded inhibition?
output: 7

input: What does the record list as inhibition for `Sc1nnc(C2CCNCC2)n1Cc1ccccc1` ?
output: 13

input: Could you share which inhibition value was measured for `Sc1nnc(C2CCN(Cc3ccccc3)CC2)o1` ?
output: 6

input: Could you share which inhibition value was measured for `CN1CCC(c2nnc(S)o2)CC1` ?
output: 8

input: What does the record list as inhibition for `Sc1nnc([C@@H]2CCCN2)o1` ?
output: -2

input: // inhibition lookup, key: `CN(C)Cc1nnc(O)o1`
output: 5

input: Reported inhibition, molecule `NCc1nnc(O)n1Cc1ccccc1` : ____
output: 1

input: I have this molecule here, `Oc1nnc([C@@H]2CCCN2)o1` , and I need its recorded inhibition.
output: 8

input: Can you look up the measured inhibition of Sc1nnc(C2CCCNC2)o1 (configuration not stated) for me?
output: 15

input: Look up inhibition: `Cc1nnc(C2CCNCC2)o1`
output: 56

input: Which inhibition value is on record for `c1ccc(CN2CCC(c3nnco3)CC2)cc1` ?
output: 1

input: Sample `NCc1nnc(S)o1` — what was its inhibition?
output: 61
